tested target: Metabotropic glutamate receptor 2 (Homo sapiens, UniProt Q14416)
assay overview: Positive modulation of human mGluR2 expressed in CHO cells co-expressing Ga16 G-protein assessed as glutamate-induced response by FLIPR assay relative to glutamate
Assay type: cell-based
Sequence (Q14416 19-872 limits assumed): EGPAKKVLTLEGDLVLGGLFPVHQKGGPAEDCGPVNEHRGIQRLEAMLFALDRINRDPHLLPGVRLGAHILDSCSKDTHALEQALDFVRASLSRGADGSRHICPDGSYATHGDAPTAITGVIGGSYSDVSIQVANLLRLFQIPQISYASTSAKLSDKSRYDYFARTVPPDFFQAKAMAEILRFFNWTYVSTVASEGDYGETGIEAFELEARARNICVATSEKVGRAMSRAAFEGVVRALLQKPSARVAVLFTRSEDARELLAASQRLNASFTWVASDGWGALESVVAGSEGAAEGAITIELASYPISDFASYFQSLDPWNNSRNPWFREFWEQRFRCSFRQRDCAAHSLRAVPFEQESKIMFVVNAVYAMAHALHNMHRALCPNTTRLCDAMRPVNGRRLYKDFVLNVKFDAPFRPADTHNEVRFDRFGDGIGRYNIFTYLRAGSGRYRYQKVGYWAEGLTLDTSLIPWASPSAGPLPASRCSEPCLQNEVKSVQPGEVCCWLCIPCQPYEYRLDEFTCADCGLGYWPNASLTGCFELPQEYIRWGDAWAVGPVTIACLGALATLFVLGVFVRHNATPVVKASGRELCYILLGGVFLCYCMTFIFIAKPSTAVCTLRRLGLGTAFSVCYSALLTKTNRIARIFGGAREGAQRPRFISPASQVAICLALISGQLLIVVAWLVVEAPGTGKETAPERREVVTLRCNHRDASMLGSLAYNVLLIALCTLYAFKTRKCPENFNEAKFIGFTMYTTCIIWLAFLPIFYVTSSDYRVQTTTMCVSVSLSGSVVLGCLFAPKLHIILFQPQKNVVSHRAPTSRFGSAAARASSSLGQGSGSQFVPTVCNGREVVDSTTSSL
endpoint: Emax (%)

Answered examples (5):
{"chemical smiles": "Cn1c(CN2CCN(c3ccc(C(F)(F)F)cn3)CC2)nc2ccccc21", "endpoint": "Emax", "result number": 81}
{"chemical smiles": "Cn1c(CN2CCC(c3ccc(Cl)cc3)CC2)nc2ccccc21", "endpoint": "Emax", "result number": 91}
{"chemical smiles": "Cn1c(CN2CCC(c3ccccc3C(F)(F)F)CC2)nc2ccccc21", "endpoint": "Emax", "result number": 94}
{"chemical smiles": "Cn1c(CN2CCN(c3ccccc3F)CC2)nc2ccccc21", "endpoint": "Emax", "result number": 64}
{"chemical smiles": "Cn1c(CN2CCC(c3nsc4ccccc34)CC2)nc2ccccc21", "endpoint": "Emax", "result number": 84}

(a) Cn1c(CN2CCN(c3ccc(Cl)cc3F)CC2)nc2ccccc21
(b) Cn1c(CN2CCN(c3ccccc3)CC2)nc2ccccc21
Q) Emax comparison. Which is larger, a or b ? Please indicate the selected item by its label.
A) b
(b: 100%, a: 69%)

----------
tested target: D(4) dopamine receptor (Homo sapiens, UniProt P21917)
Sequence (P21917 whole entry): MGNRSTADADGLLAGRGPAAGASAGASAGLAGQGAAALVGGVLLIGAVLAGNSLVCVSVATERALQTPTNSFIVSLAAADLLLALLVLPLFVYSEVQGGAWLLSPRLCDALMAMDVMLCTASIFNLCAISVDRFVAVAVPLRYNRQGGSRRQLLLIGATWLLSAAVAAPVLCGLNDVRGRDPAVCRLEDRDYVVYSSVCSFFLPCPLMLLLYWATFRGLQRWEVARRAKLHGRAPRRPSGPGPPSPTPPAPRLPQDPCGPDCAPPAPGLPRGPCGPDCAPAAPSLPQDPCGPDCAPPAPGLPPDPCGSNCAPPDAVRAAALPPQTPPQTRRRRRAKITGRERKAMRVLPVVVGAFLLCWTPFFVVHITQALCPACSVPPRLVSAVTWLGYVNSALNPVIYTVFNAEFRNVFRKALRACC
assay overview: Antagonist activity at human D4 receptor expressed in HEK293 cells co-expressing Gqo5 G-protein by FLIPR assay
endpoint: Ki (nM)

{"chemical smiles": "Cn1c(CN2CCC(c3ccc(C(F)(F)F)cc3)CC2)nc2ccccc21", "units text": "nM", "Ki": 126}
{"chemical smiles": "Cn1c(CN2CCC(c3ccc(Cl)cc3)CC2)nc2ccccc21", "units text": "nM", "Ki": 63.1}

(1) Cn1c(CN2CCN(c3ccc(Cl)cc3F)CC2)nc2ccccc21
(2) Cn1c(CN2CCN(c3ncc(Cl)cn3)CC2)nc2ccccc21
(3) Cn1c(CN2CCN(c3ccc(C(F)(F)F)cc3)CC2)nc2ccccc21
(4) Cn1c(CN2CCC(c3ccccc3)CC2)nc2ccccc21
(5) Cn1c(CN2CCN(c3ccc(C(F)(F)F)cn3)CC2)nc2ccccc21
Q) Endpoint returns the given compounds ordered by ascending Ki. Output spec: labels arranged per the requested ranking.
A) 4, 1, 3, 5, 2

(P) Cn1c(CN2CCC(c3ncc(C(F)(F)F)cc3Cl)CC2)nc2ccccc21
(Q) Cn1c(CN2CCN(c3nc4ccccc4s3)CC2)nc2ccccc21
(R) Cn1c(CN2CCC(c3nsc4ccccc34)CC2)nc2ccccc21
(S) Cn1c(CN2CCC(c3nc4ccccc4s3)CC2)nc2ccccc21
(T) Cn1c(CN2CCN(c3ccc(Cl)cc3)CC2)nc2ccccc21
Q) Ranking field: Ki; order: falling. Answer format: the labels, in the requested order.
A) P, Q, R, T, S
(P: 2510 nM, Q: 794 nM, R: 200 nM, T: 126 nM, S: 7.94 nM)

----------
tested target: Metabotropic glutamate receptor 2 (Homo sapiens)
assay overview: Agonist activity at human mGluR2 expressed in CHO cells co-expressing Ga16 G-protein assessed as glutamate-induced response by FLIPR assay
Type: functional, cell-based
Sequence (Q14416 whole entry): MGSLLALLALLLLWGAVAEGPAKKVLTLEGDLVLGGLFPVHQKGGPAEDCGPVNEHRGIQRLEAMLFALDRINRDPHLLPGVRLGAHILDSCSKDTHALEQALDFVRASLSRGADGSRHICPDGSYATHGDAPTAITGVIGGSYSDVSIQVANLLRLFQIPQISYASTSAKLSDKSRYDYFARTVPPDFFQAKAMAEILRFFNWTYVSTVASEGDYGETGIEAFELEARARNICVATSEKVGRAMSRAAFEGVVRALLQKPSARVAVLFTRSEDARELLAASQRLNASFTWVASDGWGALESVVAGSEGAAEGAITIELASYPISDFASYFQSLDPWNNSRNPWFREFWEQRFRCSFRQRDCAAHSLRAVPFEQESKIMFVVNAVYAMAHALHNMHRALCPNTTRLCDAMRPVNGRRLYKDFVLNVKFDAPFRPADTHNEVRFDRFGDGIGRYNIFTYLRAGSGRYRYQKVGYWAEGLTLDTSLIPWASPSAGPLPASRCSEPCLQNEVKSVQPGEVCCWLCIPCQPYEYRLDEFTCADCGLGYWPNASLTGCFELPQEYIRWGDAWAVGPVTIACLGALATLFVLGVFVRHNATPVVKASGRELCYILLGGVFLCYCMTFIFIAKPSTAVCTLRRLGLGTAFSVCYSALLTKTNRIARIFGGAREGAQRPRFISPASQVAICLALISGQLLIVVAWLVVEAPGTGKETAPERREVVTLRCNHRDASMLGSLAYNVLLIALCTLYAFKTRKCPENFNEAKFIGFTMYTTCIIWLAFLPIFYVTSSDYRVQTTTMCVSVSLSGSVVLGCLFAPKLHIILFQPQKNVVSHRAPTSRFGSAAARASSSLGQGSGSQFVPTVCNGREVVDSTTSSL
endpoint: EC50 (µM)

These recorded examples may help you get a feel for the data.
{"chemical smiles": "Cn1c(CN2CCC(c3cccc(Cl)c3)CC2)nc2ccccc21", "EC50 [µM]": 3.98}
{"chemical smiles": "Cn1c(CN2CCN(c3ccc(Cl)cc3F)CC2)nc2ccccc21", "EC50 [µM]": 2.51}
{"chemical smiles": "Cn1c(CN2CCC(c3nc4ccccc4s3)CC2)nc2ccccc21", "EC50 [µM]": 3.16}

(a) Cn1c(CN2CCC(c3cccc(C(F)(F)F)c3)CC2)nc2ccccc21
(b) Cn1c(CN2CCC(c3ccccc3F)CC2)nc2ccccc21
(c) Cn1c(CN2CCC(c3ccccc3C(F)(F)F)CC2)nc2ccccc21
(d) Cn1c(CN2CCN(c3ncc(Cl)cn3)CC2)nc2ccccc21
(e) Cn1c(CN2CCC(c3ncc(C(F)(F)F)cc3Cl)CC2)nc2ccccc21
Q) Provide the items ranked by increasing EC50. # respond with the labels, arranged in the requested order
A) e, d, a, b, c

(1) Cn1c(CN2CCN(c3nc4ccccc4s3)CC2)nc2ccccc21
(2) Cn1c(CN2CCC(c3ccc(Cl)cc3)CC2)nc2ccccc21
Q) Of 1 and 2 , which one carries the higher reported EC50? Let me know the label of the one you choose.
A) 2
(2: 5.01 µM, 1: 2 µM)

(P) Cn1c(CN2CCC(c3ccc(C(F)(F)F)cc3)CC2)nc2ccccc21
(Q) Cn1c(CN2CCN(c3ccc(C(F)(F)F)cn3)CC2)nc2ccccc21
Q) Higher EC50 between P and Q ? Answer = label.
A) Q
(Q: 6.31 µM, P: 2 µM)

(I) Cn1c(CN2CCN(c3ncc(C(F)(F)F)cc3Cl)CC2)nc2ccccc21
(II) Cn1c(CN2CCN(c3ccccc3F)CC2)nc2ccccc21
Q) For I and II , which recorded EC50 is lower? Mark your answer with the label of the selected entry.
A) I

----------
tested target: Metabotropic glutamate receptor 2 (Homo sapiens)
assay overview: Positive modulation of human mGluR2 expressed in CHO cells co-expressing Ga16 G-protein assessed as glutamate-induced response by FLIPR assay
Assay type: cell-based
endpoint: EC50 (nM)

The cases that follow already have their EC50 on record.
{"chemical smiles": "CCCn1c(CN2CCN(c3ncc(Cl)cn3)CC2)nc2ccccc21", "EC50, nM": 794}
{"chemical smiles": "COCCn1c(CN2CCN(c3ncc(C(F)(F)F)cc3Cl)CC2)nc2ccccc21", "EC50, nM": 158}

(a) Cn1c(CN2CCN(c3nc4ccccc4s3)CC2)nc2ccccc21
(b) Cn1c(CN2CCN(c3ncc(C(F)(F)F)cc3Cl)CC2)nc2cc(F)ccc21
(c) Cn1c(CN2CCN(c3ccccc3)CC2)nc2ccccc21
(d) Cn1c(CN2CCC(c3ccccc3F)CC2)nc2ccccc21
Q) Order the records so the highest EC50 appears first and the lowest last. Labels, ranked as asked.
A) c, a, b, d
(c: 5010 nM, a: 316 nM, b: 200 nM, d: 126 nM)

----------
Here, each record is paired with measured pKi data.
tested target: D(3) dopamine receptor (Homo sapiens, UniProt P35462)
Sequence (P35462 whole entry): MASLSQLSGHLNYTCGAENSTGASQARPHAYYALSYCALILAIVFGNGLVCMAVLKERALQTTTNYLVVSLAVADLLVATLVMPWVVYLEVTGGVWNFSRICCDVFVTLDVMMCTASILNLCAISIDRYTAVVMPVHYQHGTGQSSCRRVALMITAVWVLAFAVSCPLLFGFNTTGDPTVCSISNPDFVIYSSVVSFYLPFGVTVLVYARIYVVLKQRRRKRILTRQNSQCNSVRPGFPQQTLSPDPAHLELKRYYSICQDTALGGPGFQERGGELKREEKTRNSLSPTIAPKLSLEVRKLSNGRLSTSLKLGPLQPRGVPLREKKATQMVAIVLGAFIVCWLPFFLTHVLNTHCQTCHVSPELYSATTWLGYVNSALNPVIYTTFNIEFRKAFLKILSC
assay overview: Antagonist activity at human D3 receptor expressed in CHO cells co-expressing G0 by [35S]GTPgammaS binding assay
pKi: −log10 of the molar value.

{"chemical smiles": "Cn1c(CN2CCN(c3ncc(Cl)cn3)CC2)nc2ccccc21", "tested target": "D(3) dopamine receptor (Homo sapiens, UniProt P35462)", "pKi": "< 5.00"}
{"chemical smiles": "Cn1c(CN2CCC(c3ccc(C(F)(F)F)cc3)CC2)nc2ccccc21", "tested target": "D(3) dopamine receptor (Homo sapiens, UniProt P35462)", "pKi": "< 5.00"}

Continue with the next compound.
Q) Could you tell me which pKi is on file for "Cn1c(CN2CCN(c3ncc(C(F)(F)F)cc3Cl)CC2)nc2ccccc21" ?
A) 5.30

----------
tested target: UniProt:P14416
Sequence (P14416 whole entry): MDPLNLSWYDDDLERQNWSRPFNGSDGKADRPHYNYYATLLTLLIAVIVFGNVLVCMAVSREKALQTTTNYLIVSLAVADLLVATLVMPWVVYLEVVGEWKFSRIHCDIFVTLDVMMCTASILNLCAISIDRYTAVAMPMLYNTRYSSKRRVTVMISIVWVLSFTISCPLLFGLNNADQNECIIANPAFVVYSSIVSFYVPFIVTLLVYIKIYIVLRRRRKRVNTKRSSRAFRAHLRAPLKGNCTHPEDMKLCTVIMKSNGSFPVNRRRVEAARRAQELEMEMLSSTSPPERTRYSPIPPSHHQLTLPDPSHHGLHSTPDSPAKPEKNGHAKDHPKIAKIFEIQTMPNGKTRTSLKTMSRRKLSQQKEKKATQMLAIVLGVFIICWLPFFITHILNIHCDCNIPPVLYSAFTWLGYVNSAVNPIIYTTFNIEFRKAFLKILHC
assay overview: Antagonist activity at human D2 receptor expressed in CHO cells co-expressing G0 by [35S]GTPgammaS binding assay
endpoint: Ki (nM)

The examples below pair each entry with its known result.
{"chemical smiles": "Cn1c(CN2CCC(c3cccc(Cl)c3)CC2)nc2ccccc21", "result number": 39.8}
{"chemical smiles": "Cn1c(CN2CCC(c3ccc(Cl)cc3)CC2)nc2ccccc21", "result number": 15.8}
{"chemical smiles": "Cn1c(CN2CCC(c3cccc(C(F)(F)F)c3)CC2)nc2ccccc21", "result number": 126}
{"chemical smiles": "Cn1c(CN2CCC(c3nc4ccccc4s3)CC2)nc2ccccc21", "result number": 398}
{"chemical smiles": "Cn1c(CN2CCN(c3ncc(C(F)(F)F)cc3Cl)CC2)nc2ccccc21", "result number": 5010}

(I) Cn1c(CN2CCC(c3ccccc3)CC2)nc2ccccc21
(II) Cn1c(CN2CCC(c3ccc(C(F)(F)F)cc3)CC2)nc2ccccc21
Q) // max by Ki over [ I , II ] Select an item and report its label.
A) II
(II: 251 nM, I: 25.1 nM)

----------
tested target: Metabotropic glutamate receptor 2 (Homo sapiens)
assay overview: Positive modulation of human mGluR2 expressed in CHO cells co-expressing Ga16 G-protein assessed as glutamate-induced response by FLIPR assay relative to glutamate
Format: cell-based
endpoint: Emax (%)

{"chemical smiles": "Cn1c(CN2CCC(c3ccccc3)CC2)nc2ccccc21", "Emax, %": 89}
{"chemical smiles": "Cn1c(CN2CCN(c3nc4ccccc4s3)CC2)nc2ccccc21", "Emax, %": 88}
{"chemical smiles": "Cn1c(CN2CCC(c3nc4ccccc4s3)CC2)nc2ccccc21", "Emax, %": 76}
{"chemical smiles": "Cn1c(CN2CCC(c3cccc(Cl)c3)CC2)nc2ccccc21", "Emax, %": 92}
{"chemical smiles": "Cn1c(CN2CCC(c3ncc(C(F)(F)F)cc3Cl)CC2)nc2ccccc21", "Emax, %": 70}
{"chemical smiles": "Cn1c(CN2CCN(c3ncc(Cl)cn3)CC2)nc2ccccc21", "Emax, %": 69}

(A) Cn1c(CN2CCN(c3ncc(C(F)(F)F)cc3Cl)CC2)nc2ccccc21
(B) Cn1c(CN2CCC(c3ccc(C(F)(F)F)cc3)CC2)nc2ccccc21
Q) // compare: A vs B , metric Emax, want the smaller The response must carry the label of the picked entry.
A) A
(A: 71%, B: 110%)
